experiment: Pharmacokinetics in male beagle dogs after a single oral dose (plasma Compound 1); settings: dog, 10 mg/kg, AUC(0-T), dog 301, single oral 10 mg/kg dose, plasma Compound 1
measurement_kind: AUC(0-t) (ng·h/mL)
Output spec: scalar in ng·h/mL, unitless text.

Identify the reported AUC(0-t) for the following entry. COc1ccc2c(c1OCc1ccccc1)C[C@@H](C(=O)[O-])N(C(=O)C(c1ccccc1)c1ccccc1)C2.[Na+] 1290

###

assay: Pharmacokinetics in male beagle dogs after a single oral dose (plasma Compound 1); conditions: dog, 10 mg/kg, Cmax, dog 302, single oral 10 mg/kg dose, plasma Compound 1
measurement_kind: Cmax (ng/mL)
Quick reminder: number only, in ng/mL, skip the unit.

Identify the reported Cmax for the following entry. COc1ccc2c(c1OCc1ccccc1)C[C@@H](C(=O)[O-])N(C(=O)C(c1ccccc1)c1ccccc1)C2.[Na+] 1220

###

assay: Compound 2 solubility in solvents and buffers (saturated, 24 h shaking, HPLC); assay type: physicochemical; conditions: 50 mM citrate buffer, aqueous buffer, thermodynamic from solid; pH 6 buffer (citrate, 50 mM)
measurement_kind: solubility at 24 h (µg/mL)
Write the value in µg/mL as a bare number.

Entry COc1ccc2c(c1OCc1ccccc1)C[C@@H](C(=O)[O-])N(C(=O)C(c1ccccc1)c1ccccc1)C2.[Na+] needs its solubility at 24 h filled in; supply it. 900

###

test: Pharmacokinetics in male beagle dogs after a single oral dose (plasma Compound 1); conditions: dog, 10 mg/kg, AUC(0-T), mean of dogs, single oral 10 mg/kg dose, plasma Compound 1
measurement_kind: AUC(0-t) (µg·h/mL)
Hi! Could you send only the number? It should be in µg·h/mL, unit omitted.

Please give measured AUC(0-t) of the following entry: COc1ccc2c(c1OCc1ccccc1)C[C@@H](C(=O)[O-])N(C(=O)C(c1ccccc1)c1ccccc1)C2.[Na+] [Compound 2] 1.83

###

assay: Pharmacokinetics in male beagle dogs after a single oral dose (plasma Compound 1); conditions: dog, 10 mg/kg, AUC(0-inf), dog 304, single oral 10 mg/kg dose, plasma Compound 1
measurement_kind: AUC(0-inf) (ng·h/mL)
Give just the number in ng·h/mL; leave the unit off.

For the molecule COc1ccc2c(c1OCc1ccccc1)C[C@@H](C(=O)[O-])N(C(=O)C(c1ccccc1)c1ccccc1)C2.[Na+] [Compound 2] , give its reported AUC(0-inf). 2220

###

experiment: Pharmacokinetics in male beagle dogs after a single oral dose (plasma Compound 1); details: dog, 10 mg/kg, AUC(0-inf), Table 42 summary, mean, dogs, single oral 10 mg/kg, plasma Compound 1
measurement_kind: AUC(0-inf) (ng·h/mL)
Write the number in ng·h/mL without appending the unit.

Query AUC(0-inf) for COc1ccc2c(c1OCc1ccccc1)C[C@@H](C(=O)[O-])N(C(=O)C(c1ccccc1)c1ccccc1)C2.[Na+] 1840

###

experiment: Pharmacokinetics in male beagle dogs after a single oral dose (plasma Compound 1); conditions: dog, 10 mg/kg, T1/2, Table 42 summary, harmonic mean, dogs, single oral 10 mg/kg, plasma Compound 1
measurement_kind: half-life (h)
The reply should be a number in h, with the unit left off.

Provide measured half-life value, entry: COc1ccc2c(c1OCc1ccccc1)C[C@@H](C(=O)[O-])N(C(=O)C(c1ccccc1)c1ccccc1)C2.[Na+] 2.49

###

experiment: Pharmacokinetics in male beagle dogs after a single oral dose (plasma Compound 1); settings: dog, 10 mg/kg, AUC(0-inf), dog 302, single oral 10 mg/kg dose, plasma Compound 1
measurement_kind: AUC(0-inf) (ng·h/mL)
Could you give me the number in ng·h/mL? Just the number is fine.

Report measured AUC(0-inf); entry is COc1ccc2c(c1OCc1ccccc1)C[C@@H](C(=O)[O-])N(C(=O)C(c1ccccc1)c1ccccc1)C2.[Na+] 2350
